Values were extracted from patent US20260242478A1.

Give Anti-PSMA Fab signal in the presence of PSMA for every item shown.
system under test: T1, Anti-PSMA Fab (SEQ ID NOs: 19, 20)
T1 construct: Biotinylated and captured on neutravidin coated plates in the phage ELISA; also called 006 PSMA Fab
assay overview: phage binding ELISA on captured PSMA Fab; wells pre-incubated with PSMA antigen as competitor
Give bare numbers.

>>> observed("LDKWCIPPWMCYSI (tested as crude clonal phage supernatant) [Phage-1980]")
0.0602
>>> observed("PWHWCIPEWMCAEY (tested as crude clonal phage supernatant) [Phage-1972]")
0.083

## Input Report Anti-PSMA Fab signal in the presence of PSMA for EFKWCTPSWMCAHL (tested as crude clonal phage supernatant) [Phage-1970] please.
## Output 0.128
